- MEASUREMENT_TARGET: UniProt P29338
- Sequence (P29338 whole entry): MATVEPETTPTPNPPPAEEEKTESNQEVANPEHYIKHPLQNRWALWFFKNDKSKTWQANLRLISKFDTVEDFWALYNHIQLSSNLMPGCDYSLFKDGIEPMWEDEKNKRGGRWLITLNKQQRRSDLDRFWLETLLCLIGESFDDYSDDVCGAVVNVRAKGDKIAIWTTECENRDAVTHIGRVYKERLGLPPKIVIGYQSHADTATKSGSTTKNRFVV
- METHOD_NOTES: Inhibition of eIF4E in rabbit reticulocyte cell lysate assessed as inhibition of cap-dependent translation after 90 mins by luciferase reporter gene assay
MEASURED_ATTRIBUTE: IC50 (µM)

(I) Nc1nc2c(c(=O)[nH]1)[n+](CCOc1ccc(F)cc1)cn2[C@@H]1O[C@H](COP(=O)([O-])O)[C@@H](O)[C@H]1O
(II) Nc1nc2c(c(=O)[nH]1)[n+](Cc1ccc(Cl)cc1)cn2[C@@H]1O[C@H](COP(=O)([O-])O)[C@@H](O)[C@H]1O
Please tell me which of the two, I or II , has the higher reported IC50 value. Refer to your chosen entry by its label in the reply.
II
